Entries with their measured pIC50, system UniProt:Q13822:
pIC50: −log10 of the molar value.

Some entries whose results are on file:
{"columns": ["compound", "measure name", "result"],
 "data": [
  ["CCCCC1CN(Cc2ccc(C#N)cc2)C(=O)c2cc(-c3ccc(OC(F)(F)F)cc3)nn21 (stereo not shown)", "pIC50", "6.00 to 7.00"],
  ["CCCCCC1CN(c2cccc(CC(=O)O)c2)C(=O)c2cc(-c3ccc(Cl)cc3)nn21 (stereo not shown)", "pIC50", "≤ 6.00"],
  ["CCCCCC1CN(CC(=O)N2CCC(C(=O)O)C2)C(=O)c2cc(-c3ccc(Cl)cc3)nn21 (stereo not shown)", "pIC50", "7.00 to 8.00"],
  ["CCCCCC1CN(Cc2cc(C)cc(C(=O)O)c2)C(=O)c2cc(-c3ccc(Cl)cc3)nn21 (stereo not shown)", "pIC50", "7.00 to 8.00"],
  ["CCCCC1CN(CC(=O)OC(C)(C)C)C(=O)c2cc(-c3ccc(Cl)cc3)nn21 (stereo not shown)", "pIC50", "6.00 to 7.00"]
]}

Query: Notebook entry, UniProt:Q13822 assay: pIC50 of CCCCCC1CN(CC(=O)Nc2ccccc2)C(=O)c2cc(-c3ccc(Cl)cc3)nn21 (stereo not shown) = ?
Reply: ≤ 6.00

Query: What value of pIC50 on UniProt:Q13822 does O=C(O)C1CCN(C(=O)CN2C(=O)c3cc(-c4ccc(Cl)cc4)nn3[C@@H]3CCC[C@@H]32)CC1 have?
Reply: ≤ 6.00
